# assayText: Disposition after single oral dose, humans (normal subjects)
# Type: in vivo, human
# measurementConditions: human, blood; normal subjects, 1 mg/body oral
propertyLabel: AUC(0-t) (ng·h/mL)
Numbers only; they are read as ng·h/mL.

*Q* Would you kindly share the measured AUC(0-t) for CCCCCCCCCCCCCCCCCCCCCCCC(=O)NC(COC1OC(CO)C(O)C(O)C1O)[C@H](O)C(O)CCCCC (stereo in doubt) [compound 31] ?
*A* 63.4

###

# assayText: Disposition after single oral dose, humans (normal subjects)
# Format: in vivo, human
# measurementConditions: human, blood; normal subjects, 10 mg/body oral
propertyLabel: AUC(0-t)
Express your answer as a number followed by its unit.

*Q* Would you kindly share the measured AUC(0-t) for CCCCCCCCCCCCCCCCCCCCCCCC(=O)NC(COC1OC(CO)C(O)C(O)C1O)[C@H](O)C(O)CCCCC (stereo in doubt) ?
*A* 324 ng·h/mL

Hey, just so you know, these numbers are from patent US12447167B2.
